# Protocol: in vitro
# Format: cell-based
# Protocol Conditions: mouse
Property Measured: viability at 3 h

| Compound | Assay Result |
| --- | --- |
| CCCCN1C=CN(CCCC)[CH]1[Pt]12[n]3c(c4ccccc4c3=Nc3cccc[n+]31)=Nc1cccc[n+]12 [Complex 1b] | > 90% |

---

# Tested on: MiHa
# Protocol: MTT assay, in vitro cytotoxicity, non-tumorigenic hepatocyte
# Format: cell-based, human
# Protocol Conditions: 72 h

| Compound | IC50 |
| --- | --- |
| N.N.[Cl][Pt][Cl] [Cisplatin, cis-diamminedichloroplatinum] | > 100 µM |
